Molecular target: CDK4-NanoLuc fusion with CCND1 in 293T or 293 cells (Homo sapiens, UniProt P11802)
Construct: host or cells: 293T (ATCC CRL-3216) or 293 (ATCC CRL-1573)
Sequence (P11802 whole entry, the tested form may be a part): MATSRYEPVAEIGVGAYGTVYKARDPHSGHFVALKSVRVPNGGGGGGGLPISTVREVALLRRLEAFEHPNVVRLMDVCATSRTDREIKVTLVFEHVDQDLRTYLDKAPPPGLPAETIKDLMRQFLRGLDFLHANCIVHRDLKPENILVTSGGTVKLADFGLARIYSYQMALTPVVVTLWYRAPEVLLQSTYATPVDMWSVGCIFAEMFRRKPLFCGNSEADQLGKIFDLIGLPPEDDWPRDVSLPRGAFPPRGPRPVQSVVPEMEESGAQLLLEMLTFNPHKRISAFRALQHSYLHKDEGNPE
Sequence (P24385 whole entry partner, the tested form may be a part): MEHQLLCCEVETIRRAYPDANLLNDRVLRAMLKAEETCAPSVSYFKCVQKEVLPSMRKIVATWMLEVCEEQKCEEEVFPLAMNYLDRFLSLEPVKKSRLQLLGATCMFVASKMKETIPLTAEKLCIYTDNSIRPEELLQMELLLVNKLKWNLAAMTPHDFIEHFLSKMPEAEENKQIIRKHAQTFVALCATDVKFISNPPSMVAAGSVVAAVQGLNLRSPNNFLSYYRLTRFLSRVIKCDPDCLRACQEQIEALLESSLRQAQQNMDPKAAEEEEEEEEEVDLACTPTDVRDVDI
Assay: NanoBRET Target Engagement (TE) Intracellular Kinase Assay, CDK4/CCND1
Assay type: cell-based
Settings: NanoBRET TE intracellular kinase assay, 2-hour incubation, read-out: NanoBRET-CDK4/D1 IC50
metric_name: IC50

>  <compound>
COc1cc(O)c(C=O)c(OCC(=O)Nc2cc([C@H]3CC[C@@H](OC(=O)N4[C@H](C)COC[C@@H]4C)C3)[nH]n2)c1 [Compound 201]

>  <measured_result>
4.68 µM

$$$$
>  <compound>
COc1cc(O)c(C=O)c(OCC(=O)Nc2cc([C@H]3CC[C@@H](OC(=O)NCc4cnn(C)c4)C3)[nH]n2)c1 [Compound 137]

>  <measured_result>
> 10 µM

$$$$
>  <compound>
CC(C)NC(=O)O[C@@H]1CC[C@H](c2cc(NC(=O)N3CC=C(c4cccc(O)c4C=O)C3)n[nH]2)C1 [Compound 78]

>  <measured_result>
> 10 µM

$$$$

Now examine the next entry.
Recorded IC50 of COc1cc(O)c(C=O)c(OCC(=O)Nc2cc([C@H]3CC[C@@H](OC(=O)NC4(C#N)CC4)C3)[nH]n2)c1 [Compound 215] , please. > 6.27 µM

These data points were gathered from patent US20250289789A1.
